Target: Melanocortin receptor 4 (Homo sapiens) (UniProt P32245)
Sequence (P32245 whole entry, looked up): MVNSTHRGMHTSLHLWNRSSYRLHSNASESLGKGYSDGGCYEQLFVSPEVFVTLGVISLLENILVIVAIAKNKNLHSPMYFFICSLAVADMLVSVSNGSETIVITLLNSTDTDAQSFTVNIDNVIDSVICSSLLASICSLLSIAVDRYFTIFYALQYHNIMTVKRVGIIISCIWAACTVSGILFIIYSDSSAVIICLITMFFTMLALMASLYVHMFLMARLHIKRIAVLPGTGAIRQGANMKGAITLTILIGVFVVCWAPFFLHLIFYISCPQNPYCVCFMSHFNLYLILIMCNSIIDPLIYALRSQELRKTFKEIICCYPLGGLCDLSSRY
Assay: MC4R antagonists of cAMP signaling, primary screen, cell-based, TR-FRET, antagonist arm of biased-ligand search (AID 540295);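 also: 0% = Melanotan II alone and 100% = Melanotan II plus saturating MCL0020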
Settings: MC4R-expressing cells, MTII-stimulated cAMP, LANCE TR-FRET; at 6.5 µM; active compounds read high
Among all 360,000 compounds or so, about 1,700 (0.47%) were called active. The sample holds actives, similar compounds and a random draw of the others, so the mix is not that of the screen.
For each of the compounds below, state its inhibition.
One number for each entry, in %.

// below: answered compounds
compound	value-units	inhibition
O=C1NC[C@@H](c2ccccc2)OC(=O)[C@H](Cc2ccc(F)cc2)CC/C=C/C[C@H]1CC(=O)N(CCO)Cc1ccccc1	%	7.53
CC(=O)N(Cc1cccs1)C1CCOC(C)(C)C1 (stereo not given)	%	-3.32

List reported inhibition for each of these compounds:
1. CCc1nnc(NC(=O)[C@@H](NC(=O)c2cccc(C)c2)C(C)C)s1
2. O=C(NNS(=O)(=O)c1c(F)cc(F)c(Cl)c1F)C12CC3CC(CC(C3)C1)C2
3. NC(=O)c1ccc(NC(=O)COC(=O)c2c3c(nc4ccccc24)/C(=C\c2ccc4c(c2)OCO4)CCC3)cc1
4. Cn1cccc1C(=O)OCC(=O)c1ccc(Br)s1
5. O=C(c1cnc(Cl)c(Cl)c1)N1CCN(S(=O)(=O)c2ccc(F)cc2)CC1

Key:
1. 2.22
2. -0.65
3. -10
4. 4.25
5. 19.3

List reported inhibition for each of these compounds:
1. O=C(COC(=O)c1c2c(nc3ccccc13)CCCC2)c1ccc(Br)s1
2. Cc1ccc(Sc2ccc(NC(=O)c3ccc(F)cc3)cc2C#N)cc1

Key:
1: 33.9; 2: 33.5

Exercise: Would you kindly share the measured inhibition for `CC(=O)N1CCN(S(=O)(=O)c2c(F)cc(F)c(Cl)c2F)CC1` ?
Key: 32.7

###

Molecular target: Melanocortin receptor 4 (Homo sapiens) (UniProt P32245)
Test: MC4R antagonists of cAMP signaling, primary screen, cell-based, TR-FRET, antagonist arm of biased-ligand search (AID 540295);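 also: 0% = Melanotan II alone and 100% = Melanotan II plus saturating MCL0020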
Conditions: MC4R-expressing cells, MTII-stimulated cAMP, LANCE TR-FRET; at 6.5 µM
Screen size: about 360,000 compounds; about 1,700 (0.47%) were called active.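 Rule for the calls: active = inhibition above its plate's cutoff, the mean of tested wells on that plate plus 3 SD (cut at about 29% in these data); inactive = the rest.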 The entries come from a sample that favours actives as a whole.
Form entry, call: pick from active, inactive

These solved cases illustrate the format of a correct answer.
molecule	class-name
O=C(CSc1nc2ccccc2c(=O)[nH]1)Nc1nc(-c2ccc(Br)cc2)cs1	inactive
CCC1CCCCN1C(=S)Nc1ccc(S(=O)(=O)Nc2ncccn2)cc1 (stereo unspecified)	inactive
Cc1ccc(SC(CC(=O)c2ccc(C(C)(C)C)cc2)C(=O)O)cc1 (stereo unspecified)	active
CSc1ncnc2c1ncn2CCCNCC(C)c1ccccc1 (stereo unspecified)	inactive
Cc1ccc(Sc2cc(C(=O)c3ccccc3C(=O)O)ccc2[N+](=O)[O-])cc1	inactive
Cc1ccc2c(cnn2C(=O)CCC(=O)NC2CCCC2)c1	inactive
Cc1ccc(SC(C)C(=O)NCc2ccc(F)cc2)cc1 (stereo unspecified)	inactive
O=C(Nc1nccs1)c1cc(S(=O)(=O)N2CCOCC2)c(Cl)cc1Cl	active

Exercise: Assay outcome for `CC(=O)CSc1nc(CCc2ccccc2)c(C#N)c(=O)[nH]1` : what was it?
Key: inactive

Exercise: Assay outcome for `CC=CCn1c(SCCCc2ccccc2)nc2c1c(=O)[nH]c(=O)n2C` : what was it?
Key: inactive

Exercise: Assay outcome for `CC(C)c1ccc(NC(=O)CCN2C(=O)c3ccc([N+](=O)[O-])cc3C2=O)cc1` : what was it?
Key: inactive

###

Molecular target: Melanocortin receptor 4 (Homo sapiens) (UniProt P32245)
Test: MC4R antagonists of cAMP signaling, primary screen, cell-based, TR-FRET, antagonist arm of biased-ligand search (AID 540295);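 also: 0% = Melanotan II alone and 100% = Melanotan II plus saturating MCL0020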
Details: MC4R-expressing cells, MTII-stimulated cAMP, LANCE TR-FRET; at 6.5 µM; active compounds read high
About 1,700 (0.47%) of roughly 360,000 compounds were called active. This is one part of a sample in which actives are shown more often than they occur.
For each of the compounds below, state its inhibition.
Give bare numbers, in %.

compound	value-reported
COCC(=O)Nc1c(C(=O)N2CCCC2)oc2ccccc12	2.6
C=CCn1c(=S)[nH]c2scc(-c3ccco3)c2c1=O	29.6
CCOC(=O)c1c(-c2ccccc2)oc2cc(Br)c(O)c(C=O)c12	93
CCOc1ccc(-c2nc(N)ncc2-c2ccccc2OC)c(O)c1	-2.31
COc1ccccc1N(CC(=O)Nc1c(C)n(C)n(-c2ccccc2)c1=O)S(=O)(=O)c1ccccc1	-1.81

List reported inhibition for each of these compounds:
1. NC(=O)c1ccc(NC(=O)COC(=O)C(Cc2ccccc2)NC(=O)c2ccccc2)cc1 (centres undefined)
2. O=C(CN1CCc2ccccc21)NC(c1ccccc1)c1ccccc1
3. Cc1cc(C)c2nc(-c3cccnc3)cc(C(=O)Nc3ccc(S(=O)(=O)Nc4onc(C)c4C)cc3)c2c1
4. Cc1ccc(CSc2nnc(-c3cnccn3)n2C)cc1
5. Cn1c(SCc2c(F)cccc2Cl)nnc1-c1cnccn1
6. COC(=O)[C@@H](Cc1ccccc1)NC(=O)NCCc1ccccc1

Key:
1: 11; 2: 1.1; 3: 19.9; 4: 29.1; 5: -3.89; 6: 23.7

###

Molecular target: Melanocortin receptor 4 (Homo sapiens) (UniProt P32245)
Assay: MC4R antagonists of cAMP signaling, primary screen, cell-based, TR-FRET, antagonist arm of biased-ligand search (AID 540295);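 also: 0% = Melanotan II alone and 100% = Melanotan II plus saturating MCL0020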
Settings: MC4R-expressing cells, MTII-stimulated cAMP, LANCE TR-FRET; at 6.5 µM; active compounds read high
The campaign covered roughly 360,000 compounds. About 1,700 (0.47%) were called active. The sample as a whole holds a higher share of actives than the screen did.
measured-quantity: inhibition (%)
Give bare numbers, in %.

// below: answered molecules
molecule	inhibition [%]
COc1ccc(C(C)C)cc1S(=O)(=O)Nc1ncn[nH]1	32.9
COc1ccc(NC2CCCN(C(=O)c3ccccc3-c3ncc[nH]3)C2)cc1 (configuration not stated)	4.61
COc1ccc(CCN=C2SCC(=O)N2C)cc1OC	10.4
Cc1nc(N2CCN(c3ccccn3)CC2)c2c(C)c(C(=O)Nc3ccc(F)c(Cl)c3)sc2n1	5.05
N#Cc1ccc(OCC(=O)Nc2nc(-c3ccccn3)cs2)cc1	-1.39
O=[N+]([O-])/C=C/c1ccc2c(ccn2Cc2ccccc2)c1	46.2
COc1ccc(/C=C(\C#N)C(=O)NCCCn2ccnc2)cc1	6.52
COCCCNC(=O)/C(C#N)=C/c1c(N2CCCCCC2)nc2ccccn2c1=O	31

List reported inhibition for each of these molecules:
1. CC(NS(=O)(=O)c1ccc(Br)cc1)C(=O)NCC1CCCO1 (configuration not stated)
2. CCOC(=O)C1=CN(Cc2ccc(Br)cc2)S(=O)(=O)NC1C (configuration not stated)
3. O=C(Nc1ccccc1F)c1cc(S(=O)(=O)N2CCCCC2)cs1

Key:
40.5
1.79
3.77

List reported inhibition for each of these molecules:
1. COc1ccc(OC)c(S(=O)(=O)Nc2c(C)nn(C)c2C)c1
2. CC(=O)C1(C)N(O)C(C)(C)C(c2cccs2)=[N+]1[O-] (configuration not stated)
3. CC(=O)Nc1ccc(C=Cc2ccc([N+](=O)[O-])cc2)cc1
4. Cn1c(=O)c2c(nc(N3CCCCCC3)n2CC(O)COc2ccc(Cl)cc2)n(C)c1=O (configuration not stated)
5. Cc1ccnc(NC(=O)c2ccc(Cl)c([N+](=O)[O-])c2)c1
6. CC(OC(=O)C1CC(=O)N(Cc2ccccc2)C1)C(=O)Nc1ccccc1[N+](=O)[O-] (configuration not stated)
7. CCC(=O)Nc1ccc(S(=O)(=O)NCC2CCCO2)cc1 (configuration not stated)

Key:
1: -0.88; 2: -4.35; 3: 1.16; 4: 19.6; 5: 23.3; 6: -5.04; 7: 6.76

List reported inhibition for each of these molecules:
1. C=C(C)Cn1c(N2CCCC2)nc2c1c(=O)[nH]c(=O)n2C
2. Cn1cccc1C1(C(F)(F)F)NCCNC1=O (configuration not stated)
3. Cc1nc2ccccc2c(=O)n1NC(=O)c1ccc(Cl)c([N+](=O)[O-])c1
4. O=C(O)c1ccc2c(=O)n3c(nc2c1)/C(=C/c1ccc(Cl)c([N+](=O)[O-])c1)CC3

Key:
-7.2
1.67
49
0.52

###

Target: Melanocortin receptor 4 (Homo sapiens)
Experiment: MC4R antagonists of cAMP signaling, primary screen, cell-based, TR-FRET, antagonist arm of biased-ligand search (AID 540295);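 also: 0% = Melanotan II alone and 100% = Melanotan II plus saturating MCL0020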
Details: MC4R-expressing cells, MTII-stimulated cAMP, LANCE TR-FRET; at 6.5 µM; active compounds read high
Out of some 360,000 compounds screened, about 1,700 (0.47%) were called active. What follows is part of a selection rich in actives, with near analogues and random picks from the rest.
For each of the compounds below, state its inhibition.
Answers are plain numbers, in %.

compound	inhibition / %
N#CC1=C(N)Oc2[nH]c(=S)[nH]c(=O)c2C12C(=O)Nc1ccccc12 (stereo not drawn)	-0.32
COc1ccc(N2C(=O)CC(N3CCC(C(N)=O)CC3)C2=O)cc1 (stereo not drawn)	5.05
Cc1cccc(-n2ncc(Cl)c(Cl)c2=O)c1	27.8
Cc1ccc([N+](=O)[O-])cc1S(=O)(=O)N1CCCN(C)CC1	-8.59
Cc1cccc(-c2cnc(C(O)c3ccc4ccccc4c3)[nH]2)c1 (stereo not drawn)	5.06
CS/C(=C\C(=O)c1ccco1)Nc1ccccc1Cl	12.1
O=S(=O)(NCC1CCCO1)c1cnc(Cl)c(Cl)c1 (stereo not drawn)	24.7
CC1(C)C(c2cccs2)=[N+]([O-])C2(CCCCC2=O)N1O (stereo not drawn)	29.8
Cc1ccc(OCC(=O)Nc2ccc(NC(=O)c3cccs3)cc2)c(C)c1	29.7
Cc1ccccc1N1CCN(C2CCCN(C(=O)c3cn4c(C)cccc4n3)C2)CC1 (stereo not drawn)	-0.92

List reported inhibition for each of these compounds:
1. Cc1ccc(C(C(=O)NCC2CCCO2)N(C(=O)c2snc(C(N)=O)c2N)c2ccc(C(C)C)cc2)o1 (stereo not drawn)
2. COc1cccc(CSc2nc3nc(C)cc(C)n3n2)c1
3. Cc1ccc(NC(=O)CCNC(=O)c2ccc([N+](=O)[O-])cc2)cc1S(=O)(=O)N1CCOCC1
4. CCc1nc2ccc(C(=O)N3CCC(O)(Cc4ccccc4)CC3)cn2c1N(C)C(=O)Cc1ccccc1
5. C/C(=N\OCC(=O)Nc1ccc(Br)cc1)c1cccs1
6. COc1cc(C(=O)N2CCOC23CCN(Cc2ccccc2)CC3)cc(OC)c1OC

Key:
1: 29.1; 2: -3.34; 3: -2.86; 4: 9.63; 5: -1.35; 6: 0.19
